List of pIC50 values.
# SYSTEM UNDER TEST: T1, HLA-DR1 molecule (DRB1*0101) (human)
# T1 construct: HLA class II heterodimer
# ASSAY PROCEDURE: competitive ELISA, tracer HA 306-318
pIC50: −log10 of the molar value.
ATTRIBUTE MEASURED: pIC50

BINDER	VALUE REPORTED
AGFIHCPTENEPDLA (synthetic 15-mer) [survivin peptide 41-55]	5.64
KNWPFLEGCACTPER (synthetic 15-mer) [survivin peptide 23-37]	7.15
PTLPPAWQPFLKDHR (synthetic 15-mer) [survivin peptide 4-18]	4.35
QCFFCFKELEGWEPD (synthetic 15-mer) [survivin peptide 56-70]	5.80
CAFLSVKKQFEELTL (synthetic 15-mer) [survivin peptide 84-98]	5.55
ERMAEAGFIHCPTEN (synthetic 15-mer) [survivin peptide 36-50]	5.59
KEFEETAKKVRRAIE (synthetic 15-mer) [survivin peptide 122-136]	5.26
PDLAQCFFCFKELEG (synthetic 15-mer) [survivin peptide 52-66]	5.39
FEELTLGEFLKLDRE (synthetic 15-mer) [survivin peptide 93-107]	6.89
QPFLKDHRISTFKNW (synthetic 15-mer) [survivin peptide 11-25]	5.22
GEFLKLDRERAKNKI (synthetic 15-mer) [survivin peptide 99-113]	7.32
MGAPTLPPAWQPFLK (synthetic 15-mer) [survivin peptide 1-15]	4.97
ISTFKNWPFLEGCAC (synthetic 15-mer) [survivin peptide 19-33]	8.00
KQFEELTLGEFLKLD (synthetic 15-mer) [survivin peptide 91-105]	7.92
KKQFEELTLGEFLKL (synthetic 15-mer) [survivin peptide 90-104]	7.40
